Cited source: ChEMBL document CHEMBL2413059

# method.notes: Selectivity index, ratio of IC50 for mouse J774 cells to IC50 for epimastigote form of Trypanosoma cruzi Tulahuen 2
# Format: toxicity, cell-based
# details: read-out: Ratio IC50
quantity.measured: selectivity ratio
Lab note: record just the number, no unit beside it.

Value lookup for selectivity ratio; key = `CCOC(=O)c1c(C(F)(F)F)[n+]([O-])c2ccc(OC)cc2[n+]1[O-]`
1.2

Fill blank: measured selectivity ratio of the molecule `COC(=O)c1c(C(F)(F)F)[n+]([O-])c2ccccc2[n+]1[O-]` is ____.
7.3

Item `CCOC(=O)c1c(C(F)(F)F)[n+]([O-])c2ccccc2[n+]1[O-]` has what recorded selectivity ratio?
1

Looking for the measured selectivity ratio of `COC(=O)c1c(C(F)(F)F)[n+]([O-])c2cc(C)c(C)cc2[n+]1[O-]` , can you help?
0.8

Query (molecule): `COC(=O)c1c(C(F)(F)F)[n+]([O-])c2ccc(C)cc2[n+]1[O-]` ; field requested: selectivity ratio
0.3

Record request: selectivity ratio value, item `CCOC(=O)c1c(C(F)(F)F)[n+]([O-])c2cc(F)c(F)cc2[n+]1[O-]`
10

What selectivity ratio value was documented for this molecule, `CCOC(=O)c1c(C(F)(F)F)[n+]([O-])c2cc(C)c(C)cc2[n+]1[O-]` ?
0.5

I'd like to know its selectivity ratio. The molecule in question is `CCOC(=O)c1c(C(F)(F)F)[n+]([O-])c2ccc(C(F)(F)F)cc2[n+]1[O-]`
4.2

What value of selectivity ratio has been reported for the following molecule? `COC(=O)c1c(C(F)(F)F)[n+]([O-])c2ccc(F)cc2[n+]1[O-]`
0.7

Which selectivity ratio is listed for `CCOC(=O)c1c(C(F)(F)F)[n+]([O-])c2ccc(C)cc2[n+]1[O-]` ?
1.4

Returns the measured selectivity ratio for the input molecule. Input: CC1CS(=O)(=O)CCN1/N=C/c1ccc([N+](=O)[O-])o1 (centres undefined)
41

Please give the measured selectivity ratio for this molecule: `CCOC(=O)c1c(C(F)(F)F)[n+]([O-])c2ccc(F)cc2[n+]1[O-]`
0.1

Any idea what its selectivity ratio is? The molecule is `COC(=O)c1c(C(F)(F)F)[n+]([O-])c2ccc(C(F)(F)F)cc2[n+]1[O-]`
0.8
